Target: T1, cynomolgus galectin-10-His, YRT isoform (cynomolgus)
T1 construct: also called cynoGal10-YRT; not shown: His tag
T1 chain: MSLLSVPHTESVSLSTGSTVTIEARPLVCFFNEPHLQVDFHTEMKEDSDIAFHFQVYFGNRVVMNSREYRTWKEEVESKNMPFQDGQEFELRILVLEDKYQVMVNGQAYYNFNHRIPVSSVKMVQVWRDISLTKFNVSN
Experiment: ELISA, coated antigen 0.2 ug/mL
Description: In a similar setup to that used during the initial screening, the relative binding properties of the 11 new scFv-human Fc clones were analyzed by ELISA. […] Absorbance was measured at 450 nm (reference at 620 nm) with Tecan instrument. […] The EC50 values of each clone, calculated with a non-linear regression (log(agonist) vs. response Variable slope (four parameters)) are reported in Table 19 below. […]
Readout: EC50 (nM)
Give just the numeric value; nM need not be written.

Query: Recorded EC50 of 11F12 scFv-human Fc (Fc fusion, also called 011F12; not shown: CH2-CH3 constant domains of human IgG1 (pUPEX50 scFv-Fc fusion vector)) scFv: QVQLQESGGGLVQPGGSLRLSCAASGFTFSTNYMNWVRQAPGKGLEWVSGITSGGGRTYYADSVKGRFTISRDNAKNTLYLQMNSLKPEDTALYYCARTDHAWLDAWGQGTLVTVSSGGGGSGGGGSGGGGSHSAVTQPPSVSGTLGKTVTISCAGTSSDVGYGNYVSWYQHLPGTAPKLLIYAVSTRASGVPDRFSGSKSGNTASLTISGLQSEDEGDYYCASYSVRNNVVFGGGTRLTVL , please.
Reply: 0.24

Query: Next: 10B02 scFv-human Fc (Fc fusion, also called 010B02; not shown: CH2-CH3 constant domains of human IgG1 (pUPEX50 scFv-Fc fusion vector)) scFv: QVQLVESGGGLVQPGGSLRVSCAASGFTFSYHYMNWVRQAPGKGLEWVSGISAGGGRTYYADSVKGRFTISRDNAKNTLYLQMNSLNAEDTALYYCARVHGITNDYWGQGTQVTVSSGGGGSGGGGSGGGGSQSALTQPPSVSGSPGKTVTISCAGTSSDVGYGNYVSWYQQLPGMAPKLLIYEVNKRASGITDRFSGSKSGNTAFLTISGLQSEDEADYYCASYRNSNNWVFGGGTHLTVL
Reply: 0.05

Query: Next: 10A06 scFv-human Fc (Fc fusion, also called 010A06; not shown: CH2-CH3 constant domains of human IgG1 (pUPEX50 scFv-Fc fusion vector)) scFv: QVQLVESGGGLVQPGGSLRLSCAASGFTFGNYDMSWVRQAPGKGPEWVSDINSGGGSTYYADSVKGRFTISRDNAKNSLLLQMNSLKPEDTAVYYCATGYTGYYYWGQGTQVTVSSGGGGSGGGGSGGGGSQTVVTQEPSLSVSPGGTVTLTCGLSSGSVTSSNYPAWYQQTPGQAPRALIYSINSRHSGVPDRFSGSISGNKAALTITGAQAEDEADYYCTLYMGTGSNNVVFGGGTHLTVL
Reply: 0.04

Query: Next: 8H11 scFv-human Fc (Fc fusion, also called 008H11; not shown: CH2-CH3 constant domains of human IgG1 (pUPEX50 scFv-Fc fusion vector)) scFv: ELQLVESGGGLVQPGGSLRLSCAASGFTFSTNYMNWVRQAPGKGLEWVSGITSGGGRTYYADSVKGRFTISRDNAKNTLYLQMNSLKPEDTALYYCARTDHAWLDAWGQGTLVTVSSGGGGSGGGGSGGGGSQAGLTQPPSVSGTLGKTVTISCAGTSSDVGYGNYVSWYQQLPGTAPKLLIYAVSTRASGIPDRFSGSKSGNTASLTISGLLSEDEADYYCASYRSSNNYVFGGGTKLTVL
Reply: 0.1

Query: Next: 10D02 scFv-human Fc (Fc fusion, also called 010D02; not shown: CH2-CH3 constant domains of human IgG1 (pUPEX50 scFv-Fc fusion vector)) scFv: EVQLVESGGGLVQPGGSLRVSCAASGFTFSSYYMSWVRQAPGKGLEWVSGIVTGGGRTHYTDSVKGRFTITRDNAKNTLYLQMNSLRPEDTALYYCARVNGVVTNYDYWGQGTQVTVSSGGGGSGGGGSGGGGSQAVLTQPPSVSGSPGKTVTISCAGTSSDVGYGNYVSWYQQLPGMAPKLLIYDVNKRASGITDRFSGSKSGNTASLTISGLQSEDEADYFCASYRSPNNVVFGQGTHLTVL
Reply: 1.4
